System: SNB-75
Assay: NCI tumour cell line growth inhibition, 48 h
Activity calls are given as the source filed them. Rule as the data show it: active = GI50 up to about 1.1 µM and inactive = higher. Numbered stars: 1 amine (or outer) side, 2 acyl side, 3 side chain; on linkers, the order of the positions; unused ones are H or OH. Square brackets hold non-standard residues; d marks the D form. Peptide text beside a SMILES is read from it. X55 = CC[C@H](C)[C@H](OC(=O)[C@@H](C)[C@@H](CC)N[*:1])C(=O)[*:2]; X31 = C[C@H](N[*:1])C(=O)C(C)(C)C(=O)[*:2]; NMeY = CN[C@@H](Cc1ccc(O)cc1)C(=O)O; NMeL = CN[C@@H](CC(C)C)C(=O)O; NMeV = CN[C@H](C(=O)O)C(C)C
Catalogue of GI50 readings, one per entry.
Readout label: GI50

Compound | Meas value
CC[C@H](C)[C@@H]1OC(=O)[C@@H](C)[C@@H](CC)NC(=O)[C@H](C)NC(=O)C(C)(C)C(=O)[C@H](C)NC(=O)[C@H](Cc2ccc(OC)cc2)N(C)C(=O)[C@H](C(C)C)N(C)C(=O)CNC(=O)[C@H](CC(C)C)N(C)C(=O)CNC1=O [DOLASTATIN 11] (cyclo(A[X55]G[NMeL]G[NMeV][NMeY](Me)[X31])) | 0.0847 µM (active)
O=C1C=CC(=CC=C2C=CN(CCCCCCCCCCC(=O)NCCCCCCCCCCCC(=O)O)C=C2)C=C1 | > 100 µM (inactive)
CCCCCC(=O)n1[nH]c(=O)n(-c2ccc(OC)cc2)c1=O | > 100 µM (inactive)
O=C(Nc1nccs1)c1cc(C2=CC=CC([N+](=O)[O-])C=C2)nc(S)n1 (configuration not stated) | > 100 µM (inactive)
CN(C)Cc1cc(O)c(O)c(CN(C)C)c1 | 56.6 µM (inactive)
C=CCOCn1ccc(=O)[nH]c1=O | > 100 µM (inactive)
Cc1cc(C)nc(NS(=O)(=O)c2ccc(Nc3c4ccccc4nc4c(C(=O)Nc5ccc(S(=O)(=O)N=C(N)N)cc5)ccc(Cl)c34)cc2)n1 | 35.7 µM (inactive)
